Species: Homo sapiens
method: Liver toxicity in human assessed as induction of drug-induced liver injury by measuring verified drug-induced liver injury concern status
quantityName: DILI_Concern

Before answering, review these 5 worked examples.
O=C1NC(c2ccccc2)(c2ccccc2)C(=O)N1COP(=O)(O)O [FOSPHENYTOIN]: Most-Dili-Concern
CCn1cc(C(=O)O)c(=O)c2ccc(C)nc21 [NALIDIXIC ACID]: Ambiguous-Dili-Concern
O=C1Nc2ccc(Cl)cc2[C@@](C#CC2CC2)(C(F)(F)F)O1 [EFAVIRENZ]: Most-Dili-Concern
N=C(N)NCCN1CCCCCCC1 [GUANETHIDINE]: No-Dili-Concern
CC(C)(O/N=C(\C(=O)N[C@@H]1C(=O)N2C(C(=O)[O-])=C(C[n+]3ccccc3)CS[C@H]12)c1csc(N)n1)C(=O)O [CEFTAZIDIME]: Less-Dili-Concern

// each molecule listed below needs its DILI_Concern
1. O=C1c2cccc3c2[C@H](CCC3)CN1[C@@H]1CN2CCC1CC2 [PALONOSETRON]
2. CC(CN1c2ccccc2Sc2ccccc21)N(C)C (centres undefined) [PROMETHAZINE]
3. CCC(=O)O[C@@H](O[P@](=O)(CCCCc1ccccc1)CC(=O)N1C[C@H](C2CCCCC2)C[C@H]1C(=O)O)C(C)C [FOSINOPRIL]
4. OC(CCN1CCCC1)(c1ccccc1)C1CCCCC1 (centres undefined) [PROCYCLIDINE]

Ambiguous-Dili-Concern
Less-Dili-Concern
Less-Dili-Concern
No-Dili-Concern

---

Organism: Homo sapiens
method: Liver toxicity in human assessed as induction of drug-induced liver injury by measuring severity class index
quantityName: DILI_severity_class
Give bare numbers.

// each compound listed below needs its DILI_severity_class
1. CC[C@H]1OC(=O)[C@H](C)[C@@H](O[C@H]2C[C@@](C)(OC)[C@@H](O)[C@H](C)O2)[C@H](C)[C@@H](O[C@@H]2O[C@H](C)C[C@H](N(C)C)[C@H]2O)[C@](C)(OC)C[C@@H](C)C(=O)[C@H](C)[C@@H](O)[C@]1(C)O
2. CC[C@@]1(O)C(=O)OCc2c1cc1n(c2=O)Cc2cc3c(CN(C)C)c(O)ccc3nc2-1

1: 8; 2: 0

Requested read-out: DILI_severity_class. Entry: C[C@@H]1C[C@H]2[C@@H]3CCC4=CC(=O)C=C[C@]4(C)[C@@]3(F)[C@@H](O)C[C@]2(C)[C@@]1(O)C(=O)CO
3

---

Organism: Homo sapiens
method: Liver toxicity in human assessed as induction of drug-induced liver injury by measuring verified drug-induced liver injury concern status
quantityName: DILI_Concern

Before answering, review these 8 worked examples.
CC[C@]1(O)C[C@H]2CN(CCc3c([nH]c4ccccc34)[C@@](C(=O)OC)(c3cc4c(cc3OC)N(C=O)[C@H]3[C@@](O)(C(=O)OC)[C@H](OC(C)=O)[C@]5(CC)C=CCN6CC[C@]43[C@@H]65)C2)C1 [VINCRISTINE]: Less-Dili-Concern
CCn1cc(C(=O)O)c(=O)c2cc(F)c(N3CCNCC3)cc21 [NORFLOXACIN]: Less-Dili-Concern
CN(C)/N=N/c1[nH]cnc1C(N)=O [DACARBAZINE]: Most-Dili-Concern
CN(C)c1cc(NC(=O)CNC(C)(C)C)c(O)c2c1C[C@H]1C[C@H]3[C@H](N(C)C)C(O)=C(C(N)=O)C(=O)[C@@]3(O)C(O)=C1C2=O [TIGECYCLINE]: Ambiguous-Dili-Concern
OC[C@H]1O[C@@H](n2cnc3c2NC=NC[C@H]3O)C[C@@H]1O [PENTOSTATIN]: Most-Dili-Concern
OCCN1CCN(CCCN2c3ccccc3Sc3ccc(Cl)cc32)CC1 [PERPHENAZINE]: Less-Dili-Concern
CCCCCCCCCC(=O)N[C@@H](Cc1c[nH]c2ccccc12)C(=O)N[C@H](CC(N)=O)C(=O)N[C@@H](CC(=O)O)C(=O)N[C@@H]1C(=O)NCC(=O)N[C@@H](CCCN)C(=O)N[C@@H](CC(=O)O)C(=O)N[C@H](C)C(=O)N[C@@H](CC(=O)O)C(=O)NCC(=O)N[C@H](CO)C(=O)N[C@@H]([C@H](C)CC(=O)O)C(=O)N[C@@H](CC(=O)c2ccccc2N)C(=O)O[C@@H]1C [DAPTOMYCIN]: Less-Dili-Concern
O=C1c2c(O)ccc(O)c2C(=O)c2c(NCCNCCO)ccc(NCCNCCO)c21 [MITOXANTRONE]: Less-Dili-Concern

// each molecule listed below needs its DILI_Concern
1. Nc1ccc(S(=O)(=O)Nc2nccs2)cc1 [SULFATHIAZOLE]
2. CC(C)(C)NC(=O)[C@@H]1CN(Cc2cccnc2)CCN1C[C@@H](O)C[C@@H](Cc1ccccc1)C(=O)N[C@H]1c2ccccc2C[C@H]1O.O

1. Most-Dili-Concern
2. Ambiguous-Dili-Concern

// each molecule listed below needs its DILI_Concern
1. OCC(S)CS (centres undefined) [DIMERCAPROL]
2. CN(C)C(=O)C(CCN1CCC(O)(c2ccc(Cl)cc2)CC1)(c1ccccc1)c1ccccc1 [LOPERAMIDE]

No-Dili-Concern
No-Dili-Concern

// each molecule listed below needs its DILI_Concern
1. CCCC1O[C@@H]2C[C@H]3[C@@H]4CCC5=CC(=O)C=C[C@]5(C)[C@H]4[C@@H](O)C[C@]3(C)[C@]2(C(=O)CO)O1 (some centres undefined) [BUDESONIDE]
2. O=C(O)c1ccccc1-c1c2ccc(=O)cc-2oc2cc(O)ccc12

["No-Dili-Concern", "No-Dili-Concern"]

---

Species: Homo sapiens
method: Liver toxicity in human assessed as induction of drug-induced liver injury by measuring verified drug-induced liver injury concern status
quantityName: DILI_Concern

Before answering, review these 10 worked examples.
Nc1nc(/C(=C/CC(=O)O)C(=O)N[C@@H]2C(=O)N3C(C(=O)O)=CCS[C@H]23)cs1 [CEFTIBUTEN]: Ambiguous-Dili-Concern
Cc1nc2c([nH]1)-c1ccccc1N(C(=O)c1ccc(NC(=O)c3ccccc3-c3ccccc3)cc1)CC2 [CONIVAPTAN]: No-Dili-Concern
C[n+]1ccccc1/C=N/O [PRALIDOXIME]: Ambiguous-Dili-Concern
Cc1cc(C(=O)NNCc2ccccc2)no1 [ISOCARBOXAZID]: Ambiguous-Dili-Concern
Nc1ccc(C(=O)O)c(O)c1 [AMINOSALICYLIC ACID]: Most-Dili-Concern
Oc1ccc2c3c1O[C@H]1[C@@H](O)CC[C@@]4(O)[C@@H](C2)N(CC2CCC2)CC[C@]314 [NALBUPHINE]: No-Dili-Concern
NCCc1c[nH]cn1.O=P(O)(O)O.O=P(O)(O)O [HISTAMINE PHOSPHATE]: No-Dili-Concern
CCOC(=O)[C@H](CCc1ccccc1)N[C@@H](C)C(=O)N1CCC[C@H]1C(=O)O: Less-Dili-Concern
CC1(C)S[C@@H]2[C@H](NC(=O)Cc3ccccc3)C(=O)N2[C@H]1C(=O)O [PENICILLIN G]: Less-Dili-Concern
CN(C)CC(c1ccc(O)cc1)C1(O)CCCCC1 (configuration not stated) [DESVENLAFAXINE]: Less-Dili-Concern

// each compound listed below needs its DILI_Concern
1. CCOc1cc(CC(=O)N[C@@H](CC(C)C)c2ccccc2N2CCCCC2)ccc1C(=O)O [REPAGLINIDE]
2. CCOC(=O)[C@H](CCc1ccccc1)N[C@@H](C)C(=O)N1[C@H](C(=O)O)C[C@@H]2CCC[C@@H]21

1: Less-Dili-Concern; 2: Less-Dili-Concern

---

Species: Homo sapiens
method: Liver toxicity in human assessed as induction of drug-induced liver injury by measuring severity class index
Positions of bridges follow the written chain, without caps; N, C: chain ends. Residues, ends and D or L forms follow the SMILES beside them.
quantityName: DILI_severity_class
One number for each entry.

CO/N=C(\C(=O)N[C@@H]1C(=O)N2C(C(=O)O)=C(COC(C)=O)CS[C@H]12)c1csc(N)n1: 5

// each compound listed below needs its DILI_severity_class
1. CN1CC[C@]23c4c5ccc(O)c4O[C@H]2[C@@H](O)C=C[C@H]3[C@H]1C5
2. Cc1ccc(Cl)c(Nc2ccccc2C(=O)O)c1Cl
3. CC[C@H](C)[C@@H]1NC(=O)[C@H](Cc2ccc(O)cc2)NC(=O)[C@@H](N)CSSC[C@@H](C(=O)N2CCC[C@H]2C(=O)N[C@@H](CC(C)C)C(=O)NCC(N)=O)NC(=O)[C@H](CC(N)=O)NC(=O)[C@H]([C@@H](C)O)NC1=O (H-CYITNCPLG-NH2; disulfide 1-6)
4. Nc1ccn([C@@H]2O[C@H](CO)[C@@H](O)[C@@H]2O)c(=O)n1
5. NC12CC3CC(CC(C3)C1)C2
6. Cc1nc2n(c(=O)c1CCN1CCC(c3noc4cc(F)ccc34)CC1)CCCC2O (configuration not stated)

[0, 3, 0, 3, 3, 0]
